Cited source: ChEMBL document CHEMBL1649165

Give MIC90 for every item shown.
System: Candida tropicalis
testSummary: Antimicrobial activity against Candida tropicalis by broth microdilution method
Format: functional
*1 amine or outer side, *2 acyl side, *3 side chain or, on linkers, in order; H or OH if unused. Where a SMILES comes first, the peptide text is derived from it. Bridges are numbered along the chain shown (N, C = ends). [ ]: non-standard residue; d: D form. The star is where a group is joined. pTerphenylCO(4''-OnC5H11) = CCCCCOc1ccc(-c2ccc(-c3ccc(C(=O)*)cc3)cc2)cc1; Orn(4R-OH,5R-OH) = O=C([C@H](C[C@@H](O)[C@@H](O)N[*:3])N[*:1])[*:2]; hTyr(3S-OH,4S-OH) = N[C@H](C(=O)O)[C@H](O)[C@@H](O)c1ccc(O)cc1; Pro(3S-OH,4S-Me) = C[C@H]1CN[C@H](C(=O)O)[C@H]1O; Hyp = O=C(O)[C@@H]1C[C@@H](O)CN1

INSERT INTO measurements (molecule, endpointlabel, testvalue) VALUES
  ('OC(Cn1cncn1)(Cn1cncn1)c1ccc(F)cc1F [FLUCONAZOLE]', 'MIC90', '2 µg/mL'),
  ('C[C@@H](c1ncncc1F)[C@](O)(Cn1cncn1)c1ccc(F)cc1F [VORICONAZOLE]', 'MIC90', '0.12 µg/mL');

Give the measured MIC90 of CCCCCOc1ccc(-c2ccc(-c3ccc(C(=O)N[C@H]4C[C@@H](O)[C@@H](O)NC(=O)[C@@H]5[C@@H](O)[C@@H](C)CN5C(=O)[C@H]([C@@H](C)O)NC(=O)[C@H]([C@H](O)[C@@H](O)c5ccc(O)cc5)NC(=O)[C@@H]5C[C@@H](O)CN5C(=O)[C@H]([C@@H](C)O)NC4=O)cc3)cc2)cc1 [ANIDULAFUNGIN] ({pTerphenylCO(4''-OnC5H11)}-[Orn(4R-OH,5R-OH)]T[Hyp][hTyr(3S-OH,4S-OH)]T[Pro(3S-OH,4S-Me)]; lactam 1-C) .
0.03 µg/mL

###

Test system: Aspergillus ochraceus
testSummary: Antimicrobial activity against Aspergillus ochraceus by broth microdilution method
Format: functional
*1 amine or outer side, *2 acyl side, *3 side chain or, on linkers, in order; H or OH if unused. Where a SMILES comes first, the peptide text is derived from it. Bridges are numbered along the chain shown (N, C = ends). [ ]: non-standard residue; d: D form. The star is where a group is joined. hTyr(3S-OH,4S-OH,3'-OSO3H) = N[C@H](C(=O)O)[C@H](O)[C@@H](O)c1ccc(O)c(OS(=O)(=O)O)c1; pTerphenylCO(4''-OnC5H11) = CCCCCOc1ccc(-c2ccc(-c3ccc(C(=O)*)cc3)cc2)cc1; Orn(4R-OH,5R-OH) = O=C([C@H](C[C@@H](O)[C@@H](O)N[*:3])N[*:1])[*:2]; hTyr(3S-OH,4S-OH) = N[C@H](C(=O)O)[C@H](O)[C@@H](O)c1ccc(O)cc1; Pro(3S-OH,4S-Me) = C[C@H]1CN[C@H](C(=O)O)[C@H]1O; X1 = CCCCCOc1ccc(-c2cc(-c3ccc(C(=O)*)cc3)no2)cc1; Gln(3R-OH) = NC(=O)C[C@@H](O)[C@H](N)C(=O)O; Hyp = O=C(O)[C@@H]1C[C@@H](O)CN1
Give MIC90 for every item shown.
One number for each entry, in µg/mL.

Some solved cases for reference:
INSERT INTO measurements (compound, testvalue) VALUES
  ('CCCCCOc1ccc(-c2cc(-c3ccc(C(=O)N[C@H]4C[C@@H](O)[C@@H](O)NC(=O)[C@@H]5[C@@H](O)[C@@H](C)CN5C(=O)[C@H]([C@H](O)CC(N)=O)NC(=O)[C@H]([C@H](O)[C@@H](O)c5ccc(O)c(OS(=O)(=O)O)c5)NC(=O)[C@@H]5C[C@@H](O)CN5C(=O)[C@H]([C@@H](C)O)NC4=O)cc3)no2)cc1 [MICAFUNGIN] (X1-[Orn(4R-OH,5R-OH)]T[Hyp][hTyr(3S-OH,4S-OH,3''-OSO3H)][Gln(3R-OH)][Pro(3S-OH,4S-Me)]; lactam 1-C)', 0.25),
  ('CC[C@H](C)C[C@H](C)CCCCCCCCC(=O)N[C@H]1C[C@@H](O)[C@@H](NCCN)NC(=O)[C@@H]2[C@@H](O)CCN2C(=O)[C@H]([C@H](O)CCN)NC(=O)[C@H]([C@H](O)[C@@H](O)c2ccc(O)cc2)NC(=O)[C@@H]2C[C@@H](O)CN2C(=O)[C@H]([C@@H](C)O)NC1=O', 0.5);

In the following, a different compound is considered.
Which measured MIC90 belongs to CCCCCOc1ccc(-c2ccc(-c3ccc(C(=O)N[C@H]4C[C@@H](O)[C@@H](O)NC(=O)[C@@H]5[C@@H](O)[C@@H](C)CN5C(=O)[C@H]([C@@H](C)O)NC(=O)[C@H]([C@H](O)[C@@H](O)c5ccc(O)cc5)NC(=O)[C@@H]5C[C@@H](O)CN5C(=O)[C@H]([C@@H](C)O)NC4=O)cc3)cc2)cc1 [ANIDULAFUNGIN] ({pTerphenylCO(4''-OnC5H11)}-[Orn(4R-OH,5R-OH)]T[Hyp][hTyr(3S-OH,4S-OH)]T[Pro(3S-OH,4S-Me)]; lactam 1-C) , tested on Aspergillus ochraceus?
0.25
